Reference for the values: PubChem BioAssay

Below, each entry is listed alongside its reported viability.
Assay details: reversal of MRP1-mediated doxorubicin resistance, pilot screen, H69AR cells, doxorubicin co-treatment (AID 601)
Measurement context: H69AR cells + 2 uM doxorubicin, CellTiter-Glo, 72 h; measured here: viability with 2 uM doxorubicin; at 10 µM; stronger effect = lower value
Property label: viability

                            substance_smiles  result_value
 0             Cc1ccnc(NC(=O)Nc2ccc(F)cc2)c1         91.2%
 1                    CNC[C@H](O)c1cccc(O)c1         84.8%
 2  COc1ccc(NC(=O)CCc2ccccc2)cc1NC(=O)c1ccco1         77.2%
 3   O=C(c1cccnc1)N1CCN(Cc2ccc3c(c2)OCO3)CC1         81.4%
 4  Cc1cc(C)cc(-n2ccnc2SCC(=O)Nc2ccc3c(c2)OCCO3)c1         91.2%
 5         c1ccc2c(c1)C(=Nn1cnnc1)c1ccccc1-2         96.7%
 6  COc1cccc(-c2nnc(SCC(N)=O)n2-c2ccc(Cl)cc2)c1         92.6%
 7  O=S(=O)(c1ccc(Oc2ccc(-c3nnco3)cc2)nc1)N1CCC(Cc2ccccc2)CC1         60.4%
 8     CC(=O)Nc1ccc(N2CCN(Cc3ccccc3F)CC2)cc1         83.8%
 9        NC(=O)c1ccsc1NC(=O)COC(=O)Cc1ccsc1          110%
10                           NNC(=O)c1ccncc1         93.7%
11   CCOC(=O)c1[nH]c(C)c(C(=O)Nc2ccccc2F)c1C         67.1%
